Values were extracted from the supplement of paper PMC8728848.

Parameter: glycan array binding signal (z-score). Scope: all listed entries.
target: Gal(b1-4)GlcNAc(a1-6)Gal(b1-4)GlcNAc; assay: glycan array binding signal (z-score within array); higher = stronger binding; conditions: glycan notation: IUPAC condensed, linker removed
This excerpt belongs to a sample that is enriched for the strongest signals.
Could you keep your reply to the number by itself?

Check out these entries, answers already filled in.
binder="CC1G-11630 (Coprinopsis cinerea), A8P462 (protein) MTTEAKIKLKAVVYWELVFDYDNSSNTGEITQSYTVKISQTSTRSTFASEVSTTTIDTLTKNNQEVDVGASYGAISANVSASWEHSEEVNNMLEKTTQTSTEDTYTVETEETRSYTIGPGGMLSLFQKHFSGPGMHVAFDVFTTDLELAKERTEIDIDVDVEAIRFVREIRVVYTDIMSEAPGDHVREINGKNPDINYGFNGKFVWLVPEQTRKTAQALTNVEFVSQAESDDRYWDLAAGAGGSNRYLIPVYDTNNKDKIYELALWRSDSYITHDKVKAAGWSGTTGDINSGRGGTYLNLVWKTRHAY" number=-0.631
binder="Threefoil (Haloarcula marismortui) (protein) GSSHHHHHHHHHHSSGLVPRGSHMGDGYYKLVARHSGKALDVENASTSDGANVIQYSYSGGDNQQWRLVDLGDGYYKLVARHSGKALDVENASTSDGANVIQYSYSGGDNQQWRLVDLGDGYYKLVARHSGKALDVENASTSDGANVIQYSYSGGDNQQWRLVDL" number=0.067
binder="FGF1 (Homo sapiens), P05230 (protein) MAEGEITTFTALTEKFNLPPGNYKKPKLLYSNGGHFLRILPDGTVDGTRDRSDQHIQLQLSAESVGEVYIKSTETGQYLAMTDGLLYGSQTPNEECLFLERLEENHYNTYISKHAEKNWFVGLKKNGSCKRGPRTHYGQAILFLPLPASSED" number=-0.827
binder="Banana lectin (Musa acuminata) (protein) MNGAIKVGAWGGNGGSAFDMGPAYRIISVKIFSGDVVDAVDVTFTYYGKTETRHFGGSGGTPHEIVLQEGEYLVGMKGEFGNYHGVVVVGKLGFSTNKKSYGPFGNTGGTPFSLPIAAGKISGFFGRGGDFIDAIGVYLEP" number=-0.196
binder="Cohesin-hMARCO (Homo sapiens) (protein) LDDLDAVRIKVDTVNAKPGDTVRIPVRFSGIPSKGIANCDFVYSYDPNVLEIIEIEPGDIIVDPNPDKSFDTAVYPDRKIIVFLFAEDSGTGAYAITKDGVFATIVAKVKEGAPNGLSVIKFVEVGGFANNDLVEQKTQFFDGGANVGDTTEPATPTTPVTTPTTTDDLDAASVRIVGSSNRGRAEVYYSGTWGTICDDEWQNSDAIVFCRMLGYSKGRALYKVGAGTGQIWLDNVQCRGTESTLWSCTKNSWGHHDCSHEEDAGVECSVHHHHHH" number=0.044

Now for the binder whose glycan array binding signal (z-score) we want.
Fill in: glycan array binding signal (z-score) of HPL (Tachypleus tridentatus) (protein) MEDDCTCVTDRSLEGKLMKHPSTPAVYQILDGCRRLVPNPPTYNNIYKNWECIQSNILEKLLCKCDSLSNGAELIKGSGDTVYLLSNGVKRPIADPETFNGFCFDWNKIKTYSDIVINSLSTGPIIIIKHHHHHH is ___ -0.342
